Data origin, for the record: patent US20260297060A1

Listed here are compounds together with their documented DC50.
Target: BRAF V600E (Homo sapiens, UniProt P15056+Q96SW2, V600E)
Construct: knock-in of the HiBiT tag to the endogenous BRAF V600E locus; host or cells: A375.10 (A375 clonal line, CRISPR HiBiT knock-in at the endogenous BRAF V600E locus)
Sequence (P15056 whole entry V600E): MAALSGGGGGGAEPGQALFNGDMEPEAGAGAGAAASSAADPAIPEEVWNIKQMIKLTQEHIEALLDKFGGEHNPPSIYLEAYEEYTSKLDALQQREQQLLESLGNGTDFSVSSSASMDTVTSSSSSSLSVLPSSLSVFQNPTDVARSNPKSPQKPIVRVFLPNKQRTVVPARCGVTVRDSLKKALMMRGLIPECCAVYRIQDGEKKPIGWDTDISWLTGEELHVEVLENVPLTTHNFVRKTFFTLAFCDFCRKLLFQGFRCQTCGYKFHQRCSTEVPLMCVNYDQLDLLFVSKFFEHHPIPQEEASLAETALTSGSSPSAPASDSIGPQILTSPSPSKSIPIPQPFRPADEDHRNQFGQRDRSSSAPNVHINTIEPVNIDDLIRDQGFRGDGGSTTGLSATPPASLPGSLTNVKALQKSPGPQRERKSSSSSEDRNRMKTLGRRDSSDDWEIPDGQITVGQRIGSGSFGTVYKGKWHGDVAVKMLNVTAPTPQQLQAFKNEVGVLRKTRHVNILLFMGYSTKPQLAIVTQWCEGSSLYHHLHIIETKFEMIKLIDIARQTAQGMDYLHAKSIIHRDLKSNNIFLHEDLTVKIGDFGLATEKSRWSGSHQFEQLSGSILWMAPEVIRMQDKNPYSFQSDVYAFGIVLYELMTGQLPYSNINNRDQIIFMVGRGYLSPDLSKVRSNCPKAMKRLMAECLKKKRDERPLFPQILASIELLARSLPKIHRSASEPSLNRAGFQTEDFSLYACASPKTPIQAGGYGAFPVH
Sequence (Q96SW2 whole entry): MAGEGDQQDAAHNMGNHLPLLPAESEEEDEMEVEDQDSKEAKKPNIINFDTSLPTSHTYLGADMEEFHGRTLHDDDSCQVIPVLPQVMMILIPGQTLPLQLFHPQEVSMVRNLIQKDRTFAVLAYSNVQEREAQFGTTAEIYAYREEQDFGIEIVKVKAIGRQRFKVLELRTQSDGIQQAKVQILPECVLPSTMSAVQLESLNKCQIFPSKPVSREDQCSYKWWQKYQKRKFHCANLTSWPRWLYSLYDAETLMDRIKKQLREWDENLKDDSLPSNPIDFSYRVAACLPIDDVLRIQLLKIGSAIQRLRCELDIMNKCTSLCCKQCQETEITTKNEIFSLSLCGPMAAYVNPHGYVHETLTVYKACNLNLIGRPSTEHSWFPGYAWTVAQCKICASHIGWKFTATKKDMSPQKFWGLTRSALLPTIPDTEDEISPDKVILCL
Sequence (Q16531 whole entry partner): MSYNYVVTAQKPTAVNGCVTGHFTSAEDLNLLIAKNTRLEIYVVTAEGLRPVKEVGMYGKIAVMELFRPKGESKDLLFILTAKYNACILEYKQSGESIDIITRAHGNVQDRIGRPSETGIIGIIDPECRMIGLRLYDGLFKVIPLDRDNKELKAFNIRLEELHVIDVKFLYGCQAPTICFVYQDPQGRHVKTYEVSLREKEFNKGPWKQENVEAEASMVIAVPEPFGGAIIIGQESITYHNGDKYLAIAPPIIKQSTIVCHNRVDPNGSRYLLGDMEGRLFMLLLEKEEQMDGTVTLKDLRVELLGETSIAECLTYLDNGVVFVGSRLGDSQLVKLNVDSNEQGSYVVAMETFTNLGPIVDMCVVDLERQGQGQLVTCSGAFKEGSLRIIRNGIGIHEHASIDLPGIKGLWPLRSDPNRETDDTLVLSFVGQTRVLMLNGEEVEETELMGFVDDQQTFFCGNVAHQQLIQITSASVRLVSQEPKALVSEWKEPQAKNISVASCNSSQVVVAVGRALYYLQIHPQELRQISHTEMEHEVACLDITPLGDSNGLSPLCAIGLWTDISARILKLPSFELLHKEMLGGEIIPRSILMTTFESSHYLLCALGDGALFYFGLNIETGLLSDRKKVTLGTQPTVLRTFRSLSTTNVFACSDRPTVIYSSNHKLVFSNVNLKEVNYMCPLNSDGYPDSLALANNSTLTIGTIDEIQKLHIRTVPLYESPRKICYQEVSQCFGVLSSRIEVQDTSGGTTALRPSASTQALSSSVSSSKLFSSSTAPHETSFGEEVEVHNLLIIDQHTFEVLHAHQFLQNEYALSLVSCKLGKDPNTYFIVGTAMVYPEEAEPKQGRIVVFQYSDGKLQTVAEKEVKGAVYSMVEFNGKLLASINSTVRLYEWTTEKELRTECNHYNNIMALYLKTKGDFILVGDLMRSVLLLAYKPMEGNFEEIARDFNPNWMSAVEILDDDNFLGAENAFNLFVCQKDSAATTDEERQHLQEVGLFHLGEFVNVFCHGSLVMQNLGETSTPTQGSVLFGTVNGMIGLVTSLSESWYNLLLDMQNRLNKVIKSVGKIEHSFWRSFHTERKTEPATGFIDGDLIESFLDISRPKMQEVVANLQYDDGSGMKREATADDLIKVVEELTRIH
Test: BRAF V600E HiBiT Degradation Assay
Type: cell-based
Details: A375.10 cells, BRAF V600E, 2 hours; read-out: HiBiT-Degradation A375.10 BRAF 2 hours DC50
Experimental: Compounds of this invention were tested for degradation of mutant BRAF V600E using the HiBiT assay, a luminescence-based assay for quantification of cellular protein levels using the Nano-Glo® HiBiT Lytic Detection System (Catalog No. N3050, Promega, Madison, WI USA). […] Data were analyzed with a 4-parameter logistic fit to generate sigmoidal dose-response curves. […]

{"columns": ["Compound", "Measured target", "DC50"],
 "data": [
  ["CCN(C)S(=O)(=O)Nc1ccc(F)c(Oc2ccc3ncn(C4CC5(CCN(C6CCN(c7cc8c(cc7F)c(N7CCC(=O)NC7=O)nn8C)CC6(F)F)CC5)C4)c(=O)c3c2)c1C#N (stereo not drawn)", "BRAF V600E (Homo sapiens, UniProt P15056+Q96SW2, V600E)", "> 10000 nM"],
  ["CCN(C)S(=O)(=O)Nc1ccc(F)c(Oc2ccc3ncn(C4CC5(CCN(C6CCC(c7cc8c(cc7F)c(N7CCC(=O)NC7=O)nn8C)CC6)CC5)C4)c(=O)c3c2)c1F (single isomer, unassigned) [Compound 179]", "BRAF V600E (Homo sapiens, UniProt P15056+Q96SW2, V600E)", "< 1000 nM"],
  ["CCN(C)S(=O)(=O)Nc1ccc(F)c(Oc2ccc3ncn([C@H]4COC5(CCN(C6CCC(c7cc8c(cc7F)c(N7CCC(=O)NC7=O)nn8C)CC6F)CC5)C4)c(=O)c3c2)c1C#N (single isomer, unassigned)", "BRAF V600E (Homo sapiens, UniProt P15056+Q96SW2, V600E)", "< 1000 nM"],
  ["CCN(C)S(=O)(=O)Nc1ccc(F)c(Oc2ccc3ncn([C@@H]4COC5(C4)CN(C4CCC(c6cc7c(cc6F)c(N6CCC(=O)NC6=O)nn7C)CC4)C5)c(=O)c3c2)c1C#N (single isomer, unassigned) [Compound 237]", "BRAF V600E (Homo sapiens, UniProt P15056+Q96SW2, V600E)", "< 1000 nM"],
  ["CCN(C)S(=O)(=O)Nc1ccc(F)c(Oc2ccc3ncn([C@@H]4COC5(CCN(C6CCC(c7cc8c(cc7F)c(N7CCC(=O)NC7=O)nn8C)CC6)CC5)C4)c(=O)c3c2F)c1C#N (single isomer, unassigned) [Compound 46]", "BRAF V600E (Homo sapiens, UniProt P15056+Q96SW2, V600E)", "< 1000 nM"],
  ["Cn1nc(N2CCC(=O)NC2=O)c2cc(F)c(N3CC4(CC(N5CCC6(CC5)C[C@@H](n5cnc7ccc(Oc8c(F)ccc(NS(=O)(=O)C9CC9)c8C#N)cc7c5=O)CO6)C4)C3)cc21", "BRAF V600E (Homo sapiens, UniProt P15056+Q96SW2, V600E)", "< 1000 nM"],
  ["CCN(C)S(=O)(=O)Nc1ccc(F)c(Oc2ccc3ncc(OC4CC5(CCN(C6CCC(c7cc8c(cc7F)c(N7CCC(=O)NC7=O)nn8C)CC6)CC5)C4)nc3c2)c1C#N (single isomer, unassigned) [Compound 218]", "BRAF V600E (Homo sapiens, UniProt P15056+Q96SW2, V600E)", "< 1000 nM"],
  ["CCN(C)S(=O)(=O)Nc1ccc(F)c(Oc2ccc3ncn(C4CC5(CCN(C6CCC(c7cc8c(cc7F)c(N7CCC(=O)NC7=O)nn8C)CC6F)CC5)C4)c(=O)c3c2)c1F (single isomer, unassigned) [Compound 184]", "BRAF V600E (Homo sapiens, UniProt P15056+Q96SW2, V600E)", "< 1000 nM"],
  ["CN(CCO)S(=O)(=O)Nc1ccc(F)c(Oc2ccc3ncc([C@H]4COC5(CCN(C6CCC(c7cc8c(cc7F)c(N7CCC(=O)NC7=O)nn8C)CC6F)CC5)C4)nc3c2)c1C#N (single isomer, unassigned)", "BRAF V600E (Homo sapiens, UniProt P15056+Q96SW2, V600E)", "> 10000 nM"],
  ["CCN(C)S(=O)(=O)Nc1ccc(F)c(Oc2ccc3ncc(C4CC5(CCN(C6CCN(c7cc8c(cc7F)c(N7CCC(=O)NC7=O)nn8C)CC6)CC5)C4)nc3c2)c1C#N", "BRAF V600E (Homo sapiens, UniProt P15056+Q96SW2, V600E)", "< 1000 nM"],
  ["CO[C@H]1CCN(S(=O)(=O)Nc2ccc(F)c(Oc3ccc4ncn(C5CC6(CCN(C7CCC(c8cc9c(cc8F)c(N8CCC(=O)NC8=O)nn9C)CC7)CC6)C5)c(=O)c4c3)c2C#N)C1 (single isomer, unassigned) [Compound 103]", "BRAF V600E (Homo sapiens, UniProt P15056+Q96SW2, V600E)", "< 1000 nM"],
  ["CCN(C)S(=O)(=O)Nc1ccc(F)c(Oc2ccc3ncn(CC4CCN(C5CC6(C5)CN(c5cc7c(cc5F)c(N5CCC(=O)NC5=O)nn7C)C6)CC4)c(=O)c3c2)c1C#N", "BRAF V600E (Homo sapiens, UniProt P15056+Q96SW2, V600E)", "1000 to 10000 nM"],
  ["CCN(C)S(=O)(=O)Nc1ccc(F)c(Oc2ccc3ncn(CCC4CCN(C5CCC(c6cc7c(cc6F)c(N6CCC(=O)NC6=O)nn7C)CC5)CC4)c(=O)c3c2)c1C#N (single isomer, unassigned) [Compound 137]", "BRAF V600E (Homo sapiens, UniProt P15056+Q96SW2, V600E)", "< 1000 nM"],
  ["CCN(C)S(=O)(=O)Nc1ccc(F)c(Oc2ccc3ncn([C@H]4COC5(CCN(C6CC7(C6)CN(c6ccc(NC8CCC(=O)NC8=O)cc6F)C7)CC5)C4)c(=O)c3c2)c1C#N (stereo partly drawn)", "BRAF V600E (Homo sapiens, UniProt P15056+Q96SW2, V600E)", "< 1000 nM"],
  ["CCN(C)S(=O)(=O)Nc1ccc(F)c(Oc2ccc3ncn(C4CC5(CCC(N6CC[C@H](c7cc8c(cc7F)c(N7CCC(=O)NC7=O)nn8C)C(F)(F)C6)CC5)C4)c(=O)c3c2)c1C#N (stereo partly drawn)", "BRAF V600E (Homo sapiens, UniProt P15056+Q96SW2, V600E)", "< 1000 nM"],
  ["CCN(C)S(=O)(=O)Nc1ccc(F)c(Oc2ccc3ncc(C4CC5(C4)CN(C4CC6(C4)CN(c4cc7c(cc4F)c(N4CCC(=O)NC4=O)nn7C)C6)C5)nc3c2)c1C#N (stereo not drawn)", "BRAF V600E (Homo sapiens, UniProt P15056+Q96SW2, V600E)", "1000 to 10000 nM"],
  ["CN(CCO)S(=O)(=O)Nc1ccc(F)c(Oc2ccc3ncn(C4CC5(CCN(C6CCC(c7ccc(NC8CCC(=O)NC8=O)cc7F)CC6)CC5)C4)c(=O)c3c2)c1C#N (single isomer, unassigned) [Compound 80]", "BRAF V600E (Homo sapiens, UniProt P15056+Q96SW2, V600E)", "> 10000 nM"],
  ["CCN(C)S(=O)(=O)Nc1ccc(F)c(Oc2ccc3ncnc(OC4CC5(C4)CN(C4CCC(c6cc7c(cc6F)c(N6CCC(=O)NC6=O)nn7C)CC4)C5)c3c2)c1C#N (single isomer, unassigned) [Compound 233]", "BRAF V600E (Homo sapiens, UniProt P15056+Q96SW2, V600E)", "< 1000 nM"]
]}
